Biological target: JAK2 JH2 WT (V536-D812) [W659A, W777A, F794H solubilizing mutations] (Homo sapiens, UniProt O60674, F794H/W659A/W777A)
Construct: **JAK2 JH2 WT (V536-D812) [W659A, W777A, F794H solubilizing mutations]; C-thrombin-avi-His6; thrombin cleavage site (C); His6 (C); purchased Biortus
Sequence (O60674 536-812 W659A/W777A/F794H): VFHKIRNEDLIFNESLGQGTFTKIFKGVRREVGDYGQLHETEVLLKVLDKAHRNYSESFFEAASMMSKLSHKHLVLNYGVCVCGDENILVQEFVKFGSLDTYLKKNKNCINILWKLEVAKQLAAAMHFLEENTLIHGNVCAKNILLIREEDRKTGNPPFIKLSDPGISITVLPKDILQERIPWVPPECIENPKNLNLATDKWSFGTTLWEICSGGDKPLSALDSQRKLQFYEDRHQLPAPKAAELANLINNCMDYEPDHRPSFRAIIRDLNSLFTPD
Experiment: Surface Plasmon Resonance (SPR) binding assay, JAK2 JH2 domain
pKd: −log10 of the molar value.

{"compound": "CNC(=O)c1nnc(NC(=O)C2CC2)cc1Nc1ccc(C)c(-c2ccc(C(=O)N(C)Cc3cc(C(F)F)ccn3)nc2)c1OC [Compound 296]", "pKd": "8.00 to 11.00"}
{"compound": "CNC(=O)c1nnc(NC(=O)C2CC2)cc1Nc1cccc(-c2cnn(C3CN(C(C#N)c4ccccn4)C3)c2)c1OC (racemic) [Compound 315]", "pKd": "8.00 to 11.00"}
{"compound": "CNC(=O)c1nnc(NC(=O)C2CC2)cc1Nc1cccc(-c2cnc(C3CN(Cc4cccn(C)c4=O)C3)nc2)c1OC [Compound 326]", "pKd": "7.30 to 8.00"}

====

Tested on: TF1 JAK2 V617F STAT5 reporter
Test: Cellular TF1 STAT5 assay (luciferase reporter), JAK2 V617F
Assay type: cell-based
Conditions: TF1 JAK2 V617F, read-out: Cell PD TF1 V617F STAT5 (IC50)
pIC50: −log10 of the molar value.
observed-property: pIC50

{"compound": "CNC(=O)c1nnc(NC(=O)C2CC2)cc1Nc1cccc(-c2cnc(C(=O)N(C)Cc3cc(C#N)ccn3)cn2)c1OC [Compound 37]", "reading": "6.30 to 7.30"}
{"compound": "CNC(=O)c1nnc(NC(=O)C2CC2)cc1Nc1cccc(-c2ccc(C(=O)N(C)Cc3ccns3)nc2)c1OC [Compound 59]", "reading": "4.00 to 5.30"}
{"compound": "CNC(=O)c1nnc(NC(=O)C2CC2)cc1Nc1cccc(-c2ccc(C(=O)N(C)Cc3cn(C)nn3)nc2)c1OC [Compound 100]", "reading": "5.30 to 6.30"}
{"compound": "CNC(=O)c1nnc(NC(=O)C2CC2)cc1Nc1ccc(C)c(-c2ccc(C(=O)N(C)Cc3cc(C#N)ccn3)nc2)c1OC [Compound 33]", "reading": "7.30 to 8.00"}
{"compound": "CNC(=O)c1nnc(NC(=O)C2CC2)cc1Nc1cccc(-c2ccc(C(=O)N(C)CC3=NO[C@H]4CCCC[C@@H]34)nc2)c1OC (single isomer, unassigned) [Compound 194]", "reading": "5.30 to 6.30"}
{"compound": "CNC(=O)c1nnc(NC(=O)C2CC2)cc1Nc1ccc(C)c(-c2cnn(C3CN(Cc4ccccn4)C3)c2)c1OC [Compound 67]", "reading": "5.30 to 6.30"}
{"compound": "CNC(=O)c1nnc(NC(=O)C2CC2)cc1Nc1cccc(-c2cnn(C3CN(Cc4cccnc4)C3)c2)c1OC [Compound 89]", "reading": "6.30 to 7.30"}

====

Target: JAK2 JH2 WT (V536-D812) [W659A, W777A, F794H solubilizing mutations] (Homo sapiens, UniProt O60674, F794H/W659A/W777A)
Construct: **JAK2 JH2 WT (V536-D812) [W659A, W777A, F794H solubilizing mutations]; C-thrombin-avi-His6; thrombin cleavage site (C); His6 (C); purchased Biortus
Assay: Surface Plasmon Resonance (SPR) binding assay, JAK2 JH2 domain
pKd: −log10 of the molar value.

{"compound": "CNC(=O)c1nnc(NC(=O)C2CC2)cc1Nc1cccc(-c2cn([C@@H]3CN(Cc4cccc(C#N)n4)[C@H]3C)nn2)c1OC (racemic) [Compound 214]", "pKd": "8.00 to 11.00"}
{"compound": "CNC(=O)c1nnc(NC(=O)C2CC2)cc1Nc1cccc(-c2cn([C@H]3CN(Cc4cccc(Cl)n4)[C@@H]3C)nn2)c1OC (stereo in doubt) [Compound 236]", "pKd": "8.00 to 11.00"}
{"compound": "CNC(=O)c1nnc(NC(=O)C2CC2)cc1Nc1cccc(-c2ccc(C3CN(Cc4ccn(C)n4)C3)nc2)c1OC [Compound 263]", "pKd": "7.30 to 8.00"}
{"compound": "CNC(=O)c1nnc(NC(=O)C2CC2)cc1Nc1cccc(-c2cn(C3CN(Cc4cccc(Cl)n4)[C@@H]3C)nn2)c1OC (stereo in doubt) [Compound 239]", "pKd": "8.00 to 11.00"}
{"compound": "CNC(=O)c1nnc(NC(=O)C2CC2)cc1Nc1cccc(-c2cnn(C3CN(Cc4cccc(C#CCO)n4)C3)c2)c1OC [Compound 255]", "pKd": "8.00 to 11.00"}
{"compound": "CNC(=O)c1nnc(NC(=O)C2CC2)cc1Nc1cccc(-c2ccc(C(=O)N(C)Cc3cn(C)nc3C(F)F)nc2)c1OC [Compound 222]", "pKd": "8.00 to 11.00"}
